FYI, the data here is from ChEMBL document CHEMBL5346901.

Below: a set of entries, each annotated with reported Activity.
# target system: Cdk-related protein kinase 6 (Plasmodium falciparum)
# measurement protocol: Inhibition of plasmodium falciparum PK6 assessed as remaining activity at 1 uM incubated for 2 hrs by luciferin-based luminescence assay relative to control
Kindly answer with a numeric value in %, unit omitted.

[
  {
    "structure": "O=C(Nc1ccc(F)cc1F)Nc1ccc(Oc2ccncn2)cc1F",
    "reported property": "Activity",
    "unit spec": "%",
    "recorded number": 84
  },
  {
    "structure": "COc1cc2nccc(Oc3ccc(NC(=O)Nc4ccccc4F)c(F)c3)c2cc1OC",
    "reported property": "Activity",
    "unit spec": "%",
    "recorded number": 1
  },
  {
    "structure": "O=C(Nc1ccc(F)cc1F)Nc1ccc(Oc2ccncc2)cc1F",
    "reported property": "Activity",
    "unit spec": "%",
    "recorded number": 50
  },
  {
    "structure": "O=C(Nc1ccc(F)cc1F)Nc1ccc(Oc2cc(Cl)ncn2)cc1F",
    "reported property": "Activity",
    "unit spec": "%",
    "recorded number": 96
  },
  {
    "structure": "O=C(Nc1ccc(F)cc1F)Nc1ccc(Oc2ccnc3cc(Cl)ccc23)cc1F",
    "reported property": "Activity",
    "unit spec": "%",
    "recorded number": 38
  }
]

Please tell me: Activity of `O=C(Nc1ccc(F)cc1F)Nc1ccc(Oc2ccnc3cc4c(cc23)OCO4)cc1F` , system Cdk-related protein kinase 6 (Plasmodium falciparum)? 28

# get_value(readout= Activity, system= Cdk-related protein kinase 6 (Plasmodium falciparum)) for `COc1cc2nccc(Oc3ccc(N)c(F)c3)c2cc1OC` 100

Test system Cdk-related protein kinase 6 (Plasmodium falciparum); read-out Activity; what value for `COc1cc2nccc(Oc3ccc(NC(=O)Nc4ccc(F)cc4)c(F)c3)c2cc1OC` ? 1

Give the reported Activity for `O=C(Nc1ccc(F)cc1F)Nc1ccc(Oc2ccnc(Cl)c2)cc1F` (system: Cdk-related protein kinase 6 (Plasmodium falciparum)). 92

Any idea what Activity came out for `O=C(Nc1ccc(F)cc1F)Nc1ccc(Oc2ncnc3[nH]ccc23)cc1F` on Cdk-related protein kinase 6 (Plasmodium falciparum)? 54

Any idea what Activity came out for `N#Cc1cnc2ccccc2c1Oc1ccc(NC(=O)Nc2ccc(F)cc2F)c(F)c1` on Cdk-related protein kinase 6 (Plasmodium falciparum)? 86
